target: human GluN1/GluN2B NMDA receptors (Homo sapiens, UniProt Q05586+Q13224)
Construct: expressed in transfected cells
Sequence (Q13224 27-1484, other chains not shown): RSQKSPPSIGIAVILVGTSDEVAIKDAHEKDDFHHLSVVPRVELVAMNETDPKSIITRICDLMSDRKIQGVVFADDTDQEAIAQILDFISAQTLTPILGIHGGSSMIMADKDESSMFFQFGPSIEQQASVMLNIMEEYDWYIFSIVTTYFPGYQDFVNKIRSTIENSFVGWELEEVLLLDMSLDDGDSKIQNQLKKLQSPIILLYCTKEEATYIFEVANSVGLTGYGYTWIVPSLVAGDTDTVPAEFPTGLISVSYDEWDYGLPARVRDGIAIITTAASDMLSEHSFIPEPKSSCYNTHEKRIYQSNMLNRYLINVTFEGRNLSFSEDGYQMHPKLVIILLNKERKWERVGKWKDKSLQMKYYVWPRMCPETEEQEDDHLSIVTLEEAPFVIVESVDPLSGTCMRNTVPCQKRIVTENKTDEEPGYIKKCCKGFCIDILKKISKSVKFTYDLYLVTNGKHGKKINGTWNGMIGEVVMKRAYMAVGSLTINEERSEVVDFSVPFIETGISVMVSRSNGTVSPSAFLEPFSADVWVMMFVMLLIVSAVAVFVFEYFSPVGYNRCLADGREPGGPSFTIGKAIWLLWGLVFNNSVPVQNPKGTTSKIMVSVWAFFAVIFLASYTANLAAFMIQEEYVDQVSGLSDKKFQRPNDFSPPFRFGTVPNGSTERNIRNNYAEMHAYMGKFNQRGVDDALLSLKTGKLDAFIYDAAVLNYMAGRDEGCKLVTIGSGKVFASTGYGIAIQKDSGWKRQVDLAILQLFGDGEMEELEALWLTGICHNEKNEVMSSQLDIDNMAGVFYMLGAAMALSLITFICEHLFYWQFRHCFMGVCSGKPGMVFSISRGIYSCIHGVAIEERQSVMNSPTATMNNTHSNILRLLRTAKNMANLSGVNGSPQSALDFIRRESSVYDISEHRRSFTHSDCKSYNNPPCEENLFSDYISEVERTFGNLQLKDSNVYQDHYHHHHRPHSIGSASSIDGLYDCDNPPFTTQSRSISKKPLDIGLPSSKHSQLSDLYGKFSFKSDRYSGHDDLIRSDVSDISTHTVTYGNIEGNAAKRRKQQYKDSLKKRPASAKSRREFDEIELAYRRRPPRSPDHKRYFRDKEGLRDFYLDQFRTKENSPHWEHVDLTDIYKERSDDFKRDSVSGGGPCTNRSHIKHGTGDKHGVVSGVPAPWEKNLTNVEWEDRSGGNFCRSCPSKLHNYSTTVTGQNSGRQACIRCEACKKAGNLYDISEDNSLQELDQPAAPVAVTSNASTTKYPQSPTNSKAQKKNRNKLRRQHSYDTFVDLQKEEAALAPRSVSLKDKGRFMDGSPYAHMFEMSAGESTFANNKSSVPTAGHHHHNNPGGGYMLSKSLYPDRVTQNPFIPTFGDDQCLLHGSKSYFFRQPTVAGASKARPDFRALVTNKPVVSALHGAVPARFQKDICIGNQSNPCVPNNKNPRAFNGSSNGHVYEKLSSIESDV
protocol.summary: Calcium flux (FLIPR) assay on cloned human GluN1/GluN2B ion channels expressed in mammalian cells, standard assay
Assay type: cell-based
test.parameters: glutamate ~EC40, 10 μM glycine, stable cell line with Tet-On induced expression
endpoint: IC50 (nM)
Kindly provide the numeric value in nM only, without the unit symbol.

In the examples that follow, each entry is paired with its recorded IC50.
> print(dat)
                                   compound  quantitative.readout
1  CN(C)C(=O)C1CN(Cc2cncc(-c3ccc(F)c(OC(F)F)c3)n2)C(=O)O1 (racemic)                   141
2  CN(C)C(=O)C1CN(Cc2cncc(-c3ccc(F)c(C(C)(F)F)c3)n2)C(=O)O1 (racemic)                  3680
3  CNC(=O)C1CN(Cc2cncc(-c3ccc(F)c(OC(F)F)c3)n2)C(=O)O1 (racemic)                  5390

query: Specify measured IC50 for CN(C)C(=O)C1CN(Cc2cncc(-c3ccc(Cl)c(OC(F)F)c3)n2)C(=O)O1 (racemic) .
result: 1390

query: Specify measured IC50 for O=C1OC(C(=O)N2CCC2)CN1Cc1cncc(-c2ccc(F)c(OC(F)F)c2)n1 (racemic) .
result: 5740

query: Specify measured IC50 for CNC(=O)C1CN(Cc2cncc(-c3ccc(Cl)c(OC(F)F)c3)n2)C(=O)O1 (racemic) .
result: 2050

* * *

target: human GluN1/GluN2B NMDA receptors (Homo sapiens, UniProt Q13224)
Construct: expressed in transfected cells
Sequence (Q13224 27-1484, other chains not shown): as above
protocol.summary: Calcium flux (FLIPR) assay on cloned human GluN1/GluN2B ion channels expressed in mammalian cells, standard assay
Assay type: cell-based
test.parameters: glutamate ~EC40, 10 μM glycine, stable cell line with Tet-On induced expression
Procedure: NMDA receptors are ion channels that are highly permeable to Ca^2+ ions, rendering it possible to monitor NMDA receptor function using cell-based calcium flux assay. In this assay, co-agonists glutamate and glycine are added to cells heterologously expressing human GluN1/GluN2B NMDA receptors to initiate cellular Ca^2+ influx. The time course of the changes in intracellular calcium is measured using a fluorescent dye and a FLIPR (Fluorometric Imaging Plate Reader) device. […]
Listing of recorded IC50 by entry.
Give the value; after it, write the unit.

In the examples that follow, each entry is paired with its recorded IC50.
> print(dat)
                                   molecule  result
1  C[C@@H]1COC(=O)N1Cc1cncc(-c2ccc(F)c(C(F)F)c2)n1 [Example 7]  288 nM
2  C[C@@H]1CN(Cc2cncc(-c3ccc(F)c(OC(F)F)c3)n2)C(=O)O1 [Example 20]   29 nM

query: Specify measured IC50 for CN1CC2(C1)CN(Cc1cncc(-c3ccc(Cl)c(OC(F)F)c3)n1)C(=O)O2 [Example 68] .
result: 599 nM

query: Specify measured IC50 for Cc1ncc(-c2ccc(F)c(OC(F)F)c2)nc1CN1C(=O)OC[C@H]1C [Example 24] .
result: 78 nM

query: Specify measured IC50 for O=C1OC(C(=O)N2CCC2)CN1Cc1cncc(-c2ccc(Cl)c(OC(F)F)c2)n1 (stereo not shown) [Example 57] .
result: 2000 nM

query: Specify measured IC50 for O=C1OCCCN1Cc1cncc(-c2ccc(Cl)c(OC(F)F)c2)n1 [Example 35] .
result: 13 nM

query: Specify measured IC50 for C[C@@H]1CN(Cc2cncc(-c3ccc(Cl)c(OC(F)F)c3)n2)C(=O)O1 [Example 31] .
result: 20 nM

query: Specify measured IC50 for C[C@@H]1CN(Cc2cncc(-c3cccc(C(C)(F)F)c3)n2)C(=O)O1 [Example 40] .
result: 39 nM

query: Specify measured IC50 for C[C@@H]1COC(=O)N1Cc1cncc(-c2ccc(Cl)c(OC(F)F)c2)n1 [Example 33] .
result: 21 nM

query: Specify measured IC50 for C[C@H]1COC(=O)N1Cc1cncc(-c2ccc(F)c(OC(F)F)c2)n1 [Example 19] .
result: 291 nM
